Test system: SNB-75 CNS
Test: NCI-60 one-dose screen, 48 h (100 = growth as untreated, 0 = no growth, -100 = all killed)
Conditions: 10 µM
Compounds without any hit were thinned out: in the full panel of roughly 83,000, 20% have a hit.
We begin with a simple list: items and their reported growth.
valueKind: growth (%)

INSERT INTO measurements (moleculesmiles, subjectoftest, measuredresult) VALUES
  ('O=C(/C=C/Nc1ccccc1)c1ccc2c(c1)Nc1ccccc1S2', 'SNB-75 CNS', 106),
  ('COc1cc(Cn2c(C(F)(F)F)cc3c(Cl)ncnc32)ccn1', 'SNB-75 CNS', -60.9),
  ('CCCn1c(=O)c2[nH]c(-c3ccc(OCc4nc5ccc(C#N)cc5[nH]4)cc3)nc2n(CCC)c1=O', 'SNB-75 CNS', 84.9),
  ('O=C(CSc1nnc(-c2c[nH]c3ccccc23)n1-c1ccccc1)c1ccc(Br)cc1', 'SNB-75 CNS', 38.8),
  ('COc1csc(/C=N/NC(=O)c2[nH]c3ccc(Br)cc3c2-c2ccccc2)c1', 'SNB-75 CNS', 4.17);

====

Test system: HCT-116 colon
Assay: NCI-60 one-dose screen, 48 h (100 = growth as untreated, 0 = no growth, -100 = all killed)
Settings: 10 µM
This is part of a sample that, as a whole, favours compounds with a hit. Of some 83,000 tested, about 20% had one in any assay.
We begin with a simple list: items and their reported growth.
valueKind: growth (%)

INSERT INTO results (molecule, measuredresult) VALUES
  ('COc1ccc(CN2[C@H](C(=O)NCc3ccc(C(=O)NO)cc3)Cc3c([nH]c4ccccc34)[C@H]2C2CC2)cc1', 23),
  ('CN1CCN(Cc2ccc(NC(=O)c3cncc(C#Cc4cnc5ccc(N[C@@H]6CCOC6)nn45)c3)cc2C(F)(F)F)CC1', -63.9),
  ('Cc1cc2c(c(O)c1Br)-c1ncoc1C(=O)[C@]1(C)CC[C@H](C(C)C)[C@H]21', 31.1),
  ('Cc1ccc(/C=C/C(=O)c2ccc(NC(=O)CSc3nnc(-c4c[nH]c5ccccc45)n3-c3ccccc3)cc2)c(C)c1', -4.32),
  ('C#CCNC(=O)[C@]12CCC(C)(C)C[C@H]1C1=CC[C@@H]3[C@@](C)(CCC#N)[C@H](C(=C)C)CC[C@@]3(C)[C@]1(C)CC2', 27.2),
  ('CNC(=O)c1cccc(N2CCc3c2ccc(NC(=O)Nc2ccc(N4CCN(C)CC4)c(C(F)(F)F)c2)c3F)c1', -95.3),
  ('O=C(Cn1nc(-c2ccccc2)ccc1=O)NN1C(=O)c2ccccc2C1=O', 106),
  ('CONC[C@]1(C)C=C2C(=O)[C@](C)(O)C3(CC3)C(C)=C2[C@H]1O', 14.5),
  ('COc1ccc(C(=O)/C=C/c2cc(C(F)(F)F)cc(C(F)(F)F)c2)cc1S(N)(=O)=O', -59.1),
  ('O=C(c1ccc(O)cc1)C1[C@H](c2ccccc2Br)[C@@H](c2ccccc2)NC12C(=O)Nc1ccc(Br)cc12 (stereo partly specified)', 61.6),
  ('COC1CC(Cn2cc(COc3ccc4ccc(=O)oc4c3)nn2)C(OCc2ccccc2)C(OCc2ccccc2)C1OCc1ccccc1 (stereo unspecified)', 76.6),
  ('O=C(c1ccc(Cl)cc1)C1[C@H](c2ccc(Br)cc2)[C@@H](c2ccccc2)NC12C(=O)Nc1ccc(Cl)cc12 (stereo partly specified)', 5.1),
  ('CCCCCCCCCCCCCCCCCCCC(=O)NCCc1c[nH]c2ccc(OC(=O)CCCC(=O)OCCOOCCOOCCOOCCOOCCOOCCOOCCOOCCOOCCOOCCOOCCOOCCOC)cc12', 32.7),
  ('CCOC(=O)C1=C(N)N(c2ccc(C)cc2)C2=C(C(=O)CC(C)(C)C2)C1c1ccccc1OC (stereo unspecified)', 103),
  ('COc1ccc(C(=O)/C=C/c2cc(F)cc(C(F)(F)F)c2)cc1S(N)(=O)=O', -55),
  ('CC(=O)Nc1nc(-c2ccc(N3CCN(C)CC3)c(NS(=O)(=O)c3cccc4c(N(C)C)cccc34)c2)cs1', 28.2);
